test: Cytotoxicity against rat PC12 cells assessed as cell viability at 160 uM after 24 hrs by MTT assay relative to control; format: cell-based, PC-12; settings: read-out: Activity
MEASURED METRIC: viability at 24 h, 160 µM (%)

{"CPD SMILES": "Cc1nc2cc(-c3noc(-c4cnccn4)n3)ccc2o1", "MEASURED METRIC": "viability at 24 h, 160 µM", "UNIT SPEC": "%", "REPORTED RESULT": 80}

====

molecular target: Nuclear factor erythroid 2-related factor 2 (Homo sapiens) (UniProt Q16236); test: Activation of Nrf2 in human HepG2 cells at 0.02 uM incubated for 12 hrs by ARE-driven luciferase reporter gene assay relative to control; type: cell-based
Sequence (Q16236 whole entry): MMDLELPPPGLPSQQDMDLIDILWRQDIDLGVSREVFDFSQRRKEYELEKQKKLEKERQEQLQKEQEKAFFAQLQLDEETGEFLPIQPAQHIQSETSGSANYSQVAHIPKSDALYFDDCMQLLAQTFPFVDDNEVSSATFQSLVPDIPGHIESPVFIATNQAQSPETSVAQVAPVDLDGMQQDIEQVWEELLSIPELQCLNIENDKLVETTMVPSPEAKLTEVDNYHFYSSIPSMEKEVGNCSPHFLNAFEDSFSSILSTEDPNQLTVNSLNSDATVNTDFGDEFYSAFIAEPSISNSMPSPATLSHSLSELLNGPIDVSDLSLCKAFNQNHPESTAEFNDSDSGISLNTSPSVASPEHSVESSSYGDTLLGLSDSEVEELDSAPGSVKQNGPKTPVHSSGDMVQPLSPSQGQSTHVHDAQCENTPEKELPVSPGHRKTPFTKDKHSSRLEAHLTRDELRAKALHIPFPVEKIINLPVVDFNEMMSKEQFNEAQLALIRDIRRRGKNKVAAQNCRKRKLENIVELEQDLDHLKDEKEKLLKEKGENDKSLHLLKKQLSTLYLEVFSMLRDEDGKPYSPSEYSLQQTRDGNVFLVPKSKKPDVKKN
Consider the following partition of reported fold change (FC) into named classes: category 1 = under 2, category 2 = from 2 up to 3, category 3 = 3 and over

{"MOLECULE": "Cc1nc2cc(-c3noc(-c4cnccn4)n3)ccc2o1", "CAT": "category 3"}
{"MOLECULE": "c1ccc(-c2nc3cc(-c4noc(-c5ccc6[nH]cnc6c5)n4)ccc3o2)cc1", "CAT": "category 1"}
{"MOLECULE": "CC(C)(C)c1cc(O)ccc1O", "CAT": "category 1"}
{"MOLECULE": "CN(C)C=O [DIMETHYLFORMAMIDE]", "CAT": "category 1"}
{"MOLECULE": "Cn1cnc2ccc(-c3noc(-c4ccc5cc[nH]c5c4)n3)cc21", "CAT": "category 1"}
{"MOLECULE": "Cc1nc2cc(-c3noc(/C=C/c4ccccc4)n3)ccc2o1", "CAT": "category 2"}
{"MOLECULE": "CCCn1c(=O)[nH]c2cc(-c3noc(C4CCCC4)n3)ccc21", "CAT": "category 3"}
{"MOLECULE": "CC(C)n1c(=O)[nH]c2cc(-c3noc(C4CCCCC4)n3)ccc21", "CAT": "category 3"}
{"MOLECULE": "CN(C)c1cccc(-c2nc(-c3ccc4c(c3)[nH]c(=O)n4C3CCCC3)no2)c1", "CAT": "category 2"}
{"MOLECULE": "Cc1nc2cc(-c3noc(-c4ccc5[nH]cnc5c4)n3)ccc2o1", "CAT": "category 1"}
